System: SN12C renal
ASSAY_NOTES: NCI tumour cell line growth inhibition, 48 h
Reported TGI values for the following compounds.

Reference set, count: 3
### Prompt Fill blank: measured TGI of the compound CO[C@H](C(=O)[C@@H](O)[C@@H](C)O)[C@@H]1Cc2cc3cc(O[C@H]4C[C@@H](O[C@H]5C[C@@H](O)[C@H](O)C(C)O5)[C@H](O)C(C)(O)O4)cc(O)c3c(O)c2C(=O)[C@H]1O[C@H]1C[C@@H](O[C@H]2C[C@@H](O[C@H]3C[C@@H](OC)[C@H](O)C(C)O3)[C@@H](O)C(C)O2)[C@H](O)C(C)O1 (some centres undefined) is ____.
### Response > 16.8 µM

### Prompt Any idea what its TGI is? The compound is Cc1noc(C)c1C1=CCCCc2ccccc21
### Response > 100 µM

### Prompt Quick check: TGI of CN(C)CCCN1c2ccccc2CCc2cccc([N+](=O)[O-])c21 ?
### Response 52.9 µM

Further cases:
### Prompt Consider the compound shown here: CC(=O)OC/C=C(\C)CCC(Br)C(C)(C)Br (centres undefined) What is its recorded TGI?
### Response > 10 µM

====

Tested on: HCC-2998 colon
ASSAY_NOTES: NCI tumour cell line growth inhibition, 48 h
ENDPOINT_LABEL: TGI (µM)
Kindly answer with a numeric value in µM, unit omitted.

### Prompt Which TGI is listed for COc1cc(OC)cc(C(=O)NC2=C(Cl)C(=O)c3ccccc3C2=O)c1 ?
### Response 13.8

### Prompt Look up TGI: COc1ccc2c(c1)c(=O)c1c(NCCN(C)C)ccc3c(=O)n(CCN(C)C)c(=O)n2c31
### Response 0.569

### Prompt Could you tell me which TGI is on file for O[N+]1=CC=CCC1=S.On1ccccc1=S.[Zn] ?
### Response 2.37

### Prompt Request the reported TGI associated with CC1CN1C1=CC(=O)c2c(c(CO)cn2C)C1=O (configuration not stated)
### Response 0.415

### Prompt Query (compound): O=C(C[Si](CC(=O)c1cccc(C(F)(F)F)c1)CC(=O)c1cccc(C(F)(F)F)c1)c1cccc(C(F)(F)F)c1 ; field requested: TGI
### Response 15

### Prompt Dear colleague, I am looking for the recorded TGI of the following compound: Cn1cc(C2=C(c3cn(CCSC(=N)N)c4ccccc34)C(=O)NC2=O)c2ccccc21
### Response 8.07

### Prompt Given the compound Cc1cc(C)c(OC(=O)Nc2cccc3ccccc23)c(-c2ccccc2)c1 , what is its reported TGI?
### Response 91.8

### Prompt Name the reported TGI value associated with the compound COc1ccc2c(c1)C(=O)c1c-2n(CCCNCCO)c(=O)c2ccccc12
### Response 0.479

Proceeding to the next compound to report its TGI.
### Prompt Need TGI of CC(=O)N=C1C=C(NC(C)=O)C(=O)c2ccccc21 , thanks.
### Response 34.3

====

System: SF-295 CNS
ASSAY_NOTES: NCI tumour cell line growth inhibition, 48 h
ENDPOINT_LABEL: TGI (µM)
Please respond with the number in µM and leave the unit unwritten.

Sample answers from the record:
### Prompt Please provide the recorded TGI for CC1CCC2(NC1)OC1CC3C4CCC5CC(OC6OC(CO)C(OC7OC(CO)C(O)C(OC8OCC(O)C(O)C8O)C7OC7OC(CO)C(O)C(O)C7O)C(O)C6O)CCC5(C)C4CCC3(C)C1C2C (stereo unspecified) , tested on SF-295 CNS.
### Response 2.32

### Prompt Lab request: please report TGI under test system SF-295 CNS for c1ccc2cc(CN3CCC(C4CCN(Cc5ccc6ccccc6c5)CC4)CC3)ccc2c1
### Response 3.74

### Prompt Requested read-out TGI, target or system SF-295 CNS, entry COC(=O)c1cc2c3c(c1)Oc1cc(C(=O)OC)cc4c1C3c1c(cc(C(=O)OC)cc1O4)O2
### Response 26.4

---
### Prompt // map O[N+]1=CC=CCC1=S.On1ccccc1=S.[Zn] to recorded TGI (system: SF-295 CNS)
### Response 2.72

### Prompt Lab note: need TGI with SF-295 CNS for entry C[C@@H](O)[C@H]1C(=O)N2C(C(=O)O)=C(SCCN=CN)C[C@H]12 , please look it up.
### Response 7.5

### Prompt Lookup: TGI / SF-295 CNS / O=C1c2ccccc2C(=O)c2c(N=Nc3[nH]c(=S)[nH]c3O)cccc21
### Response 19.8

### Prompt API: value(readout=TGI, system=SF-295 CNS) for record FC(F)(F)c1cccc(Nc2nc3ccccc3nc2Nc2cccc(C(F)(F)F)c2)c1
### Response 5.41

### Prompt Give TGI (SF-295 CNS) of the following compound: CCCCCCC[C@@H](O)CC(=O)NC(CC(C)C)C(=O)NC(CCC(=O)O)C(=O)NC1C(=O)NC(C(C)C)C(=O)NC(CC(C)C)C(=O)NC(CO)C(=O)NC(CC(C)C)C(=O)NC(CO)C(=O)NC(C(C)CC)C(=O)OC1C (stereo partly specified)
### Response 22.2

### Prompt Hi! What's the reported TGI for O=C(/C(=C\c1ccccc1)CN1CCOCC1)c1ccc(Br)cc1 on SF-295 CNS?
### Response 15.6

### Prompt Item Cn1cc(C2=C(c3cn(CCSC(=N)N)c4ccccc34)C(=O)NC2=O)c2ccccc21 with SF-295 CNS - TGI?
### Response 7.39

====

molecules and their reported TGI
System: BT-549 breast
ASSAY_NOTES: NCI tumour cell line growth inhibition, 48 h

Please review the entries below; each comes with its answer.
### Prompt What does the data say about its TGI? Entry: Cc1cc(C)c(C#N)c(SC(=S)NC(=O)c2ccc(Cl)cc2)n1
### Response > 100 µM

### Prompt GET /values?readout=TGI&item= O=[N+]([O-])/C(C(Cl)=C(Cl)Cl)=C(\Nc1cccc2ccccc12)Sc1ccccc1
### Response 35.4 µM

### Prompt Please look up its TGI: OC1CC2CCCN(CCc3c1[nH]c1ccccc31)C2 (stereo unspecified)
### Response > 100 µM

Others:
### Prompt Look up TGI for this molecule: O=C(O)C1CCCN1C(=O)c1cc(Cl)ccn1 (stereo unspecified)
### Response > 100 µM

### Prompt Look at this molecule and give its reported TGI. CNC(=O)N(C1=NCC(C)S1)c1ccc(C)c(C)c1 (stereo unspecified)
### Response > 100 µM

### Prompt Using the record for CN1CCN(c2ccc3nc(-c4c5cccccc-5[nH]c4=O)[nH]c3c2)CC1 , report its TGI.
### Response 66 µM

====

System: DU-145 prostate
ASSAY_NOTES: NCI tumour cell line growth inhibition, 48 h
ENDPOINT_LABEL: TGI

### Prompt Tell me the measured TGI of CC(=O)NC1C(OCc2ccccc2)OC(CO)C(O)C1OCC(=O)N1CCCC1C(=O)N[C@@H](CCC(=O)NCCNCCNc1c2ccccc2nc2cccc([N+](=O)[O-])c12)C(N)=O (stereo not given in full) , please.
### Response > 21.2 µM

### Prompt Dear colleague, I am looking for the recorded TGI of the following compound: CCCCCCc1nn2c(-c3ccncc3)nnc2s1
### Response > 10 µM

---
### Prompt Which measured TGI value corresponds to c1ccc2c(c1)SC1=Nc3sc4ccccc4[n+]3CN12 ?
### Response > 100 µM

### Prompt Returns the measured TGI for the input compound. Input: COC(=O)CCCc1c(-c2[nH]c3ccccc3c2CCCC(=O)OC)[nH]c2ccccc12
### Response > 100 µM

### Prompt Fill blank: measured TGI of the compound Cn1c(=O)cc(NNc2ccccc2)[nH]c1=O is ____.
### Response > 100 µM

====

Tested on: HOP-62 NSCLC
ASSAY_NOTES: NCI tumour cell line growth inhibition, 48 h
Listing of recorded TGI by entry.
The answer is to be given in µM; state only the numeric part.

### Prompt Record request: TGI value, item COC(=O)c1cc2c3c(c1)Oc1cc(C(=O)OC)cc4c1C3c1c(cc(C(=O)OC)cc1O4)O2
### Response 23.5

Further cases:
### Prompt # lookup: TGI of C[N+](C)=C/C=C(\Cl)c1ccc2ccccc2c1
### Response 35

### Prompt Look at this molecule and give its reported TGI. CC1=C(C(=O)CC(=O)C(=O)Nc2ccccc2C(F)(F)F)Sc2ccccc2N1
### Response 96.8

====

Tested on: M14 melanoma
ASSAY_NOTES: NCI tumour cell line growth inhibition, 48 h
ENDPOINT_LABEL: TGI

Here's what some known entries look like.
### Prompt Entry under review: CC(C)[Si]1(C(C)C)OCC2OC(N3C(=O)NC(=O)C[C@@H]3C(O)c3ccccc3)CC2O[Si](C(C)C)(C(C)C)O1 (some centres undefined) . Reported TGI?
### Response 30.1 µM

### Prompt Reported TGI, compound CC1(CO)OC(n2cnc3cncnc32)CC1O (centres undefined) : ____
### Response > 100 µM

### Prompt What value of measured TGI is listed for Cn1c(=O)cc(NNc2ccccc2)[nH]c1=O ?
### Response 89.9 µM

### Prompt Which TGI is reported for this compound? CC(=O)OC/C=C(\C)CCC(Br)C(C)(C)Br (centres undefined)
### Response > 10 µM

### Prompt Using the record for N#Cc1c(-c2ccccc2)c(C#N)c(=S)n(C2OC(CO)C(O)C(O)C2O)c1N (centres undefined) , report its TGI.
### Response > 100 µM

---
### Prompt Query: TGI; subject: O=C1C=CC(=O)c2ccc(=O)ccc21
### Response 31.1 µM

### Prompt // query TGI value for entry Cn1cc(C2=C(c3cn(CCSC(=N)N)c4ccccc34)C(=O)NC2=O)c2ccccc21
### Response 8.01 µM

### Prompt Dear colleague, I am looking for the recorded TGI of the following compound: O=C(CC1(O)C(=O)Nc2c(Cl)cc(Cl)cc21)c1ccco1 (centres undefined)
### Response > 100 µM

### Prompt Return reported TGI; argument: CCOc1cc2c[n+](C)c3c4cc(OC)c(OC)cc4ccc3c2cc1OC
### Response > 100 µM

### Prompt Dear colleague, I am looking for the recorded TGI of the following compound: Cc1cc(O)c2c3c1C(=O)Oc1c(CO)c(O)c(C(=O)O)c(c1O3)C=NN=Cc1c3c(c(CO)c(O)c1C(=O)O)OC(=O)c1c(C)cc(O)c(c1O3)C=NN=C2
### Response > 100 µM

### Prompt Name the reported TGI value associated with the compound Cc1c(C(=O)O)n(-c2ccc(Cl)cc2)c2ncnc(N)c12
### Response 53.6 µM

### Prompt Recorded TGI for COc1ccc(C(=O)/C=C2\C(=O)Nc3ccc(Br)cc32)cc1 , please?
### Response > 48.3 µM

### Prompt Consider the compound shown here: O=[N+]([O-])/C(C(Cl)=C(Cl)Cl)=C(\Nc1cccc2ccccc12)Sc1ccccc1 What is its recorded TGI?
### Response > 100 µM

### Prompt What value of TGI has been recorded for this entry: CCOC(=O)c1cc(NC(=O)N(CCC#N)CCN(C(=O)N[C@@H](Cc2ccccc2)C(=O)N[C@@H](CC(C)C)C(=O)NC)c2ccccc2)ccc1OC
### Response > 100 µM

### Prompt Fill in: TGI of CC(C)(C)OC(=O)Nc1nnc(S(N)(=O)=O)s1 is ___
### Response > 100 µM

### Prompt Look at this compound and give its reported TGI. COC1CC(OC2C(C)OC(OC3C(C)OC(OC4C(C)OC(O[C@H]5CC[C@@]6(C)C(=CC[C@]7(O)[C@@H]6C[C@@H](OC(=O)/C=C/c6ccccc6)[C@@]6(C)[C@]7(O)CC[C@@]6(O)C(C)=O)C5)CC4OC)CC3OC)CC2OC)OC(C)C1O (some centres undefined)
### Response > 12.5 µM

### Prompt For the compound shown here, COc1cccc(C2C(C(=O)O)=C(CO)Oc3cc4c(cc32)OCO4)c1OC (centres undefined) , give the reported TGI.
### Response > 100 µM

### Prompt Could you tell me which TGI is on file for Cc1ccc(O)c(N=Nc2ccc(S(=O)(=O)O)cc2)n1 ?
### Response > 100 µM

### Prompt // TGI lookup, key: O=C(O)c1cc(-c2ccc3c(O)ccc(O)c3c2)ccc1O
### Response 47.7 µM
